Molecular target: Cytochrome P450 2C9 (Homo sapiens) (UniProt P11712)
Sequence (P11712 whole entry, looked up): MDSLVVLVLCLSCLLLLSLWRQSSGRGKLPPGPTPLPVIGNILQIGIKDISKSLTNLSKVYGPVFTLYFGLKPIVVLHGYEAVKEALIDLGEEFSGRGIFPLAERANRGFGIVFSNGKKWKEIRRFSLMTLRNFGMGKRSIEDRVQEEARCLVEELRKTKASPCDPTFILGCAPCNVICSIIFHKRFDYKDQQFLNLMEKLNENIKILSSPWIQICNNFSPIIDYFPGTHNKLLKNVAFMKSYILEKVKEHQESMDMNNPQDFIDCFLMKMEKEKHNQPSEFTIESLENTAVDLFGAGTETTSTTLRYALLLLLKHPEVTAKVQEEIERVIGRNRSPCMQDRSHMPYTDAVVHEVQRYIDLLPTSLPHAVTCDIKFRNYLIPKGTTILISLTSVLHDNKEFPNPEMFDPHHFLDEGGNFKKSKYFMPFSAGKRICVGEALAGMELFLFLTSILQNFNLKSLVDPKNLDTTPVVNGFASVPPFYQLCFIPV
Assay: enhancers of cytochrome P450 2C9 turnover – biochemical, luminescence, primary screen (AID 1024)
Conditions: recombinant CYP2C9, luciferin-H conversion, at 5 µM, factor 1 = untreated enzyme, 0 = blocked
The whole screen tested about 96,000 compounds, of which about 1,400 (1.5%) were called active.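 Rule for the calls: active = activation factor of 2 or more for CYP2C9 at a 5 µM dose; inactive = the rest.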 The sample as a whole holds a higher share of actives than the screen did.
Thanks in advance; please answer with one of these: active, inactive

| COMPOUND | MEASURED TARGET | CLASS |
| --- | --- | --- |
| O=C(Nc1ccc2sc3ccccc3c(=O)c2c1)c1ccccc1Cl | Cytochrome P450 2C9 (Homo sapiens) (UniProt P11712) | inactive |
| Cn1cc(CCC(=O)NCc2ccc3c(c2)OCO3)c2ccccc21 | Cytochrome P450 2C9 (Homo sapiens) (UniProt P11712) | active |
| Clc1ccc(Cl)c(Oc2ccc(Oc3nc(Cl)ccc3Cl)cc2)n1 | Cytochrome P450 2C9 (Homo sapiens) (UniProt P11712) | active |
| O=C(NNC(=O)c1cccnc1)Nc1ccccc1 | Cytochrome P450 2C9 (Homo sapiens) (UniProt P11712) | inactive |

Give the logged outcome of this assay for the following compound: COc1ccccc1-c1nnc(SCC(=O)Nc2ccccc2)o1
inactive

Now this one: CCOC(=O)N1CCN(C(=O)c2cc3c(ccc4ccccc43)oc2=O)CC1
inactive
